target: BRD4 (Homo sapiens, UniProt O60885); assay: Differential Scanning Fluorimetry (DSF), stability of BRD4 upon ligand binding; settings: 100 μM protein, 4 μM compound and 2% DMSO
# YES = ΔTm at 4 µM below 5 °C (exclusive); NO = ΔTm at 4 µM at/above 5 °C

Determine whether this compound shows ΔTm at 4 µM lower than 5 °C (ties excluded): COc1ccc(Nc2nc(C)c(C)c(Nc3cccc(S(=O)(=O)NC(C)(C)C)c3)n2)cc1
YES

Here is the next compound: COc1cc(Nc2nc(Nc3ccc(N4CCN(C)CC4)cc3)ncc2Cl)c(OC)cc1Cl
YES

Here is the next compound: CCc1cnc(Nc2ccc(N3CCN(C)CC3)cc2)nc1Nc1ccc(Cl)c(OC)c1
YES

Here is the next compound: CC(C)NS(=O)(=O)c1cccc(Nc2nc(Nc3ccc(N4CCN(C)CC4)cc3)nc3c2CCC3)c1
YES

Here is the next compound: COc1cc(Nc2nc(Nc3ccc(N4CCN(C)CC4)cc3)nc(C)c2C)ccc1Cl
YES

Here is the next compound: CN1CCN(c2ccc(Nc3ncc(Cl)c(Nc4cccc(S(=O)(=O)NC(C)(C)C)c4)n3)cc2)CC1
NO

Here is the next compound: Cc1ccc(Nc2nc(Nc3ccc(N4CCN(C)CC4)cc3)ncc2C)cc1S(=O)(=O)NC(C)(C)C
NO

Here is the next compound: COc1cccc(Nc2nc(Nc3ccc(N4CCN(C)CC4)cc3)ncc2C)c1
YES

Here is the next compound: COc1cc(Nc2ccnc(Nc3ccc(N4CCN(C)CC4)cc3)n2)ccc1Cl
YES

Here is the next compound: COc1cc(Nc2nc(Nc3ccc(C(=O)NC4CCN(C)CC4)cc3)ncc2C)cc(OC)c1Cl
NO

Here is the next compound: CCOC(=O)c1cnc(Nc2ccc(N3CCN(C)CC3)cc2)nc1Nc1cccc(NS(=O)(=O)C(C)(C)C)c1
YES

Here is the next compound: CN1CCN(c2ccc(Nc3ncc(F)c(Nc4ccc(C(=O)NC5CC5)cc4)n3)cc2)CC1
YES

Here is the next compound: Cc1cnc(Nc2ccc(N3CCN(C)CC3)cc2)nc1Nc1ccc(C(=O)NC2CC2)cc1
NO

Here is the next compound: CN1CCN(c2ccc(Nc3nc4c(c(Nc5cccc(NS(=O)(=O)C(C)(C)C)c5)n3)CCCC4)cc2)CC1
NO

Here is the next compound: COc1cc(Nc2nc(Nc3ccc(N4CCN(C)CC4)cc3)ncc2C)cc(OC)c1OC
NO

Here is the next compound: CCCS(=O)(=O)Nc1cccc(Nc2nc(Nc3ccc(N4CCN(C)CC4)cc3)ncc2C)c1
NO

Here is the next compound: Cc1cnc(Nc2ccc(N3CCN(C)CC3)c(F)c2)nc1Nc1ccc(Cl)c(NS(=O)(=O)CC(C)C)c1
NO

Here is the next compound: COc1cc(Nc2ncc(C(F)(F)F)c(Nc3ccc(N4CCN(C)CC4)cc3)n2)ccc1Cl
YES

Here is the next compound: CCOc1cccc(Nc2nc(Nc3ccc(N4CCN(C)CC4)cc3)ncc2C)c1
NO

====

biological target: BRD4 (Homo sapiens, UniProt O60885); assay: Differential Scanning Fluorimetry (DSF), stability of BRD4 upon ligand binding; details: estimated
Please go through the items and note down their pIC50.
API: returns pIC50 as number; meaning -log10 of concentration in mol/L.

Observed pIC50 on BRD4 (Homo sapiens, UniProt O60885) for Cc1cnc(Nc2ccc(N3CCN(C)CC3)cc2)nc1Nc1cccc(NC(=O)C2CC2)c1 , please.
6.20

Here is the next molecule: Cc1cnc(Nc2ccc(N3CCN(C)CC3)cc2)nc1Nc1cc(NS(=O)(=O)C2CC2)cc(NS(=O)(=O)C2CC2)c1
6.43

Here is the next molecule: CN1CCN(c2ccc(Nc3nc(Nc4cccc(S(=O)(=O)NC(C)(C)C)c4)c4ccccc4n3)cc2)CC1
5.54

Here is the next molecule: Cc1cnc(Nc2ccc(N3CCN(C)CC3)cc2)nc1Nc1cccc(S(=O)(=O)NC(C)(C)CO)c1
6.82

Here is the next molecule: Cc1cnc(Nc2ccc(N3CCN(C)CC3)cc2)nc1Nc1cccc(S(=O)(=O)NC(C)C)c1
6.68

Here is the next molecule: COc1ccc(Nc2nc(C)c(C)c(Nc3cccc(S(=O)(=O)NC(C)(C)C)c3)n2)cc1
4.74

Here is the next molecule: CC(C)NS(=O)(=O)c1cccc(Nc2nc(Nc3ccc(N4CCN(C)CC4)cc3)nc3c2CCC3)c1
5.92

Here is the next molecule: Cc1cnc(Nc2ccc(CC(=O)N3CCN(C)CC3)cc2)nc1Nc1ccc(C(=O)NC2CC2)cc1
6.96

Here is the next molecule: CC(C)NS(=O)(=O)c1cccc(Nc2nc(Nc3ccc(N4CCNCC4)cc3)ncc2Br)c1
6.34

====

target: BRD4 (Homo sapiens, UniProt O60885); test: Differential Scanning Fluorimetry (DSF), stability of BRD4 upon ligand binding; conditions: estimated
# 1 = IC50 below 100 nM (exclusive); 0 = IC50 at/above 100 nM

Determine whether this compound shows IC50 lower than 100 nM (ties excluded): COc1cc(Nc2nc(Nc3ccc(N4CCN(C)CC4)cc3)ncc2Cl)cc(OC)c1Cl
0

Here is the next compound: Cc1cnc(Nc2ccc(N3CCN(C)CC3)cc2)nc1Nc1ccc(Cl)c([N+](=O)[O-])c1
0

Here is the next compound: CN1CCN(c2ccc(Nc3ncc(F)c(Nc4ccc(C(=O)Nc5ccccc5)cc4)n3)cc2)CC1
0

Here is the next compound: Cc1cnc(Nc2ccc(N3CCN(C)CC3)c(Cl)c2)nc1Nc1ccc(Cl)c(NS(=O)(=O)C(C)(C)C)c1
1

Here is the next compound: CCS(=O)(=O)Nc1cc(Nc2nc(Nc3ccc(N4CCN(C)CC4)cc3)ncc2C)ccc1Cl
0

Here is the next compound: CN1CCN(c2ccc(Nc3ncc(Cl)c(Nc4ccc5c(c4)OCO5)n3)cc2)CC1
0

Here is the next compound: Cc1cnc(Nc2ccc(N3CCN(C)CC3)c(F)c2)nc1Nc1ccc(Cl)c(NS(=O)(=O)CC(C)C)c1
1

Here is the next compound: CCOC(=O)c1cnc(Nc2ccc(N3CCN(C)CC3)cc2)nc1Nc1cccc(S(=O)(=O)NC(C)(C)C)c1
0

Here is the next compound: Cc1cnc(Nc2ccc(N3CCN(C)CC3)cc2)nc1Nc1ccc(Cl)c(OC(C)C)c1
0

Here is the next compound: Cc1cnc(Nc2ccc(C(=O)NC3CCN(C)CC3)c(F)c2)nc1Nc1ccc(Cl)c(NS(=O)(=O)C(C)(C)C)c1
1

Here is the next compound: Cc1cnc(Nc2ccc(C(=O)NC3CCN(C)CC3)cc2)nc1Nc1cccc(NS(=O)(=O)C(C)(C)C)c1
1

Here is the next compound: COc1cccc(Nc2nc(Nc3ccc(N4CCN(C)CC4)cc3)ncc2Cl)c1
0

Here is the next compound: COc1cc(Nc2nc(Nc3ccc(N4CCNCC4)cc3)ncc2C)ccc1Cl
1

Here is the next compound: CC(C)NS(=O)(=O)c1cccc(Nc2nc(Nc3ccc(N4CCN(C)CC4)cc3)ncc2Cl)c1
0

Here is the next compound: CCOC(=O)c1cnc(Nc2ccc(N3CCN(C)CC3)cc2)nc1Nc1ccc(Cl)c(OC)c1
0

Here is the next compound: Cc1cnc(Nc2ccc(N3CCN(C)CC3)cc2)nc1Nc1cccc(NS(=O)(=O)C2CC2)c1
0

Here is the next compound: CCCS(=O)(=O)Nc1cc(Nc2nc(Nc3ccc(N4CCN(C)CC4)cc3)ncc2C)ccc1Cl
0

Here is the next compound: Cc1cnc(Nc2ccc(N3CCN(C)CC3)cc2)nc1Nc1cccc(S(=O)(=O)NC2CC2)c1
1

====

target: BRD4 (Homo sapiens); assay: Differential Scanning Fluorimetry (DSF), stability of BRD4 upon ligand binding; conditions: 100 μM protein, 4 μM compound and 2% DMSO
Property measured: ΔTm at 4 µM
Could you kindly put the unit after your number?

Give the measured ΔTm at 4 µM of CC(C)(C)c1cccc(Nc2nc(Nc3ccc(N4CCOCC4)cc3)ncc2Cl)c1 .
-0.34 °C

Here is the next compound: CN1CCN(c2ccc(Nc3ncc(F)c(Nc4ccc(Cl)c(NS(=O)(=O)C(C)(C)C)c4)n3)cc2)CC1
7.2 °C

Here is the next compound: Cc1cnc(Nc2ccc(C(=O)NC3CCN(C)CC3)cc2)nc1Nc1cccc(NS(=O)(=O)C(C)(C)C)c1
7.6 °C

Here is the next compound: CC(C)S(=O)(=O)Nc1cccc(Nc2nc(Nc3ccc(N4CCN(C)CC4)cc3)nc3c2COC3)c1
3.9 °C

Here is the next compound: Cc1cc(Nc2ncc(C)c(Nc3ccc(Cl)c(NS(=O)(=O)C(C)(C)C)c3)n2)ccc1N1CCN(C)CC1
10.4 °C

Here is the next compound: Cc1cnc(Nc2ccc(C(=O)NC3CCN(C)CC3)c(F)c2)nc1Nc1ccc2c(c1)N(S(=O)(=O)C(C)(C)C)CC2
12.3 °C

Here is the next compound: Cc1cnc(Nc2ccc(N3CCN(C)CC3)cc2)nc1Nc1cccc(NS(=O)(=O)CC(C)C)c1
6.58 °C

Here is the next compound: Cc1cnc(Nc2ccc(N3CCN(C)CC3)cc2)nc1Nc1cccc(S(=O)(=O)NC(C)(C)CO)c1
6.5 °C

Here is the next compound: CN1CCN(c2ccc(Nc3ncc(F)c(Nc4ccc(C(=O)Nc5ccccc5)cc4)n3)cc2)CC1
0.35 °C

Here is the next compound: Cc1cnc(Nc2ccc(C(=O)NC3CCN(C)CC3)c(F)c2)nc1Nc1ccc(Cl)c(NS(=O)(=O)C(C)(C)C)c1
12.5 °C

Here is the next compound: CN1CCN(c2ccc(Nc3nc4c(c(Nc5cccc(NS(=O)(=O)C(C)(C)C)c5)n3)CCC4)cc2)CC1
6.4 °C

Here is the next compound: Cc1cnc(Nc2ccc(N3CCN(C)CC3)cc2)nc1Nc1ccc(Cl)c(NS(=O)(=O)c2ccccc2)c1
4.1 °C

Here is the next compound: CN1CCN(c2ccc(Nc3nc4c(c(Nc5ccc(Cl)c(NS(=O)(=O)C6CC6)c5)n3)CCC4)cc2)CC1
4.6 °C

Here is the next compound: CCc1cnc(Nc2ccc(N3CCOCC3)cc2)nc1Nc1cccc(S(=O)(=O)NC(C)C)c1
-0.29 °C

Here is the next compound: Cc1cnc(Nc2ccc(N3CCN(C)CC3)cc2)nc1Nc1ccc(Cl)c([N+](=O)[O-])c1
2 °C

Here is the next compound: Cc1cnc(Nc2ccc(CC(=O)N3CCN(C)CC3)cc2)nc1Nc1ccc(Cl)cc1
4.1 °C

Here is the next compound: Cc1ccc(Nc2nc(Nc3ccc(C(=O)NC4CCN(C)CC4)c(F)c3)ncc2C)cc1S(=O)(=O)NC1CCC1
7.8 °C

Here is the next compound: Cc1cnc(Nc2ccc(N3CCN(C)CC3)cc2)nc1Nc1ccc(F)c(NS(=O)(=O)C(C)(C)C)c1
9.5 °C

Here is the next compound: CC(C)NS(=O)(=O)c1cccc(Nc2nc(Nc3ccc(N4CCN(C)CC4)cc3)nc3c2COC3)c1
0.6 °C

Here is the next compound: CN1CCN(c2ccc(Nc3ncc(Cl)c(Nc4cccc(S(=O)(=O)NC(C)(C)CO)c4)n3)cc2)CC1
6.1 °C

Here is the next compound: CN1CCN(c2ccc(Nc3ncc(C(F)(F)F)c(Nc4cccc(S(=O)(=O)NC(C)(C)C)c4)n3)cc2)CC1
0.2 °C

Here is the next compound: Cc1cnc(Nc2cc(F)c(N3CCN(C)CC3)c(F)c2)nc1Nc1cccc(NS(=O)(=O)C(C)(C)C)c1
12.8 °C

Here is the next compound: CCCc1cnc(Nc2ccc(N3CCN(C)CC3)cc2)nc1Nc1ccc(Cl)c(OC)c1
3.1 °C

Here is the next compound: Cc1cnc(Nc2ccc(C(=O)NC3CCN(C)CC3)c(F)c2)nc1Nc1ccc(Cl)c(NS(=O)(=O)C2(C)CC2)c1
10.9 °C

Here is the next compound: CN1CCN(c2ccc(Nc3nc4c(c(Nc5cccc(S(=O)(=O)NC6CC6)c5)n3)CCC4)cc2)CC1
4.9 °C

Here is the next compound: Cc1cnc(Nc2ccc(CC(=O)N3CCN(C)CC3)cc2)nc1Nc1ccc(Cl)c(Cl)c1
4.7 °C

Here is the next compound: CN1CCN(c2ccc(Nc3nc4c(c(Nc5cccc(NS(=O)(=O)C(C)(C)C)c5)n3)COC4)cc2)CC1
6 °C

Here is the next compound: CC(C)Oc1cccc(Nc2nc(Nc3ccc(N4CCN(C)CC4)cc3)ncc2Cl)c1
4.8 °C

Here is the next compound: COc1cc(Nc2nc(Nc3ccc(N4CCN(C)CC4)cc3)ncc2C(C)C)ccc1Cl
1.4 °C

Here is the next compound: COc1ccc(Nc2nc(C)c(C)c(Nc3cccc(S(N)(=O)=O)c3)n2)cc1
0.12 °C

Here is the next compound: CCc1cnc(Nc2ccc(N3CCOCC3)cc2)nc1Nc1cccc(S(=O)(=O)NC(C)(C)C)c1
-0.0084 °C

Here is the next compound: Cc1cnc(Nc2ccc(N3CCN(C)CC3)cc2)nc1Nc1ccc(Cl)c(NS(=O)(=O)CC(C)C)c1
7.28 °C

Here is the next compound: Cc1cnc(Nc2cc(F)c(N3CCN(C)CC3)c(F)c2)nc1Nc1ccc(Cl)c(NS(=O)(=O)C2(C)CC2)c1
12.3 °C

Here is the next compound: COc1ccc(Nc2nc(Nc3ccc(N4CCN(C)CC4)cc3)ncc2Cl)cc1OC
5.1 °C

Here is the next compound: COc1cc(Nc2nc(Nc3ccc(N4CCN(C)CC4)cc3)ncc2Cl)ccc1Cl
4.8 °C
